The following compounds are listed with their measured Population Membrane Permeable-Phenotype (%) values.
Tested on: Fibroblast
Procedure Details: Multiplex assay against human fibroblast
Format: toxicity, cell-based
Condition Parameters: 48 h, 10 µM, compound concentration 10 uM, replicate 2
Give the value, in units of %, as a plain number.

{"Entry Smiles": "Cc1nc2ccc(Oc3ccc(F)cc3)cc2c(=O)n1C[C@H]1CCCN(C(C)C)C1.Cl", "U": "%", "Value Observed": 2}

Incoming: Name the recorded Population Membrane Permeable-Phenotype (%) for COc1cc(C(=O)N(CCCc2ccccc2)Cc2ccc(CC(=O)O)cc2)cc(OC)c1C .
Outgoing: 5

Incoming: # get_value(readout='Population Membrane Permeable-Phenotype (%)', item= CC(C)(C)c1ccc(S(=O)(=O)Nc2ccc(Cl)cc2C(=O)c2cc[n+]([O-])cc2)cc1 )
Outgoing: 16

Incoming: Give the measured Population Membrane Permeable-Phenotype (%) of Oc1c(CN2CCN(c3ccccn3)CC2)cc(Cl)c2cccnc12 .
Outgoing: 1
